The origin of these recorded values is paper PMC12888861.

System: A. non-baumannii isolates (n = 87)
Assay: MIC, broth microdilution (EUCAST), A. non-baumannii isolates
Format: cell-based, Acinetobacter spp. (non-baumannii)
Conditions: Acinetobacter junii, isolate NO-Ab77, Acinetobacter junii, OXA-24/40; in combinations ETZ fixed at 8 mg/L; read-out: MIC
QUANTITY: MIC (µg/mL)
Numbers only, in µg/mL.

Below: 3 compounds and their reported MIC.
>  <COMPOUND>
C[n+]1ccn(C[C@@]2(C)[C@H](C(=O)[O-])N3C(=O)C[C@H]3S2(=O)=O)n1

>  <MIC [µg/mL]>
2

$$$$
>  <COMPOUND>
CO/N=C(\C(=O)N[C@@H]1C(=O)N2C(C(=O)[O-])=C(C[N+]3(C)CCCC3)CS[C@H]12)c1csc(N)n1 [cefepime]

>  <MIC [µg/mL]>
1

$$$$
>  <COMPOUND>
C[C@@H](O)[C@H]1C(=O)N2C(C(=O)O)=C(SCCN=CN)C[C@H]12

>  <MIC [µg/mL]>
32

$$$$

With those in mind, consider the next compound.
Task item: Given the compound CC1(C)[C@H](C(=O)O)N2C(=O)C[C@H]2S1(=O)=O , what is its reported MIC?
Reply: 0.5

* * *

For each record, write down the corresponding MIC.
Test system: carbapenem-susceptible A. baumannii isolates (n = 54)
Assay: MIC, broth microdilution (EUCAST), carbapenem-susceptible A. baumannii isolates
Assay type: cell-based, Acinetobacter baumannii
Details: Acinetobacter baumannii, isolate Ab163; ST 132; ADC-2, OXA-120; in combinations ETZ fixed at 8 mg/L

Below: 3 molecules and their reported MIC.
>  <MOLECULE>
C[C@@H](O)[C@H]1C(=O)N2C(C(=O)O)=C(SCCN=CN)C[C@H]12 [imipenem]

>  <MIC>
≤ 0.06 µg/mL

$$$$
>  <MOLECULE>
C[n+]1ccn(C[C@@]2(C)[C@H](C(=O)[O-])N3C(=O)C[C@H]3S2(=O)=O)n1 [enmetazobactam]

>  <MIC>
2 µg/mL

$$$$
>  <MOLECULE>
CC1(C)[C@H](C(=O)O)N2C(=O)C[C@H]2S1(=O)=O [sulbactam]

>  <MIC>
0.5 µg/mL

$$$$

With those in mind, consider the next molecule.
Task item: Given the molecule CO/N=C(\C(=O)N[C@@H]1C(=O)N2C(C(=O)[O-])=C(C[N+]3(C)CCCC3)CS[C@H]12)c1csc(N)n1 [cefepime] , what is its reported MIC?
Reply: 0.5 µg/mL

* * *

System: carbapenem-susceptible A. baumannii isolates (n = 54)
Assay: MIC, broth microdilution (EUCAST), carbapenem-susceptible A. baumannii isolates
Format: cell-based, Acinetobacter baumannii
Conditions: Acinetobacter baumannii, isolate Ab209; in combinations ETZ fixed at 8 mg/L
QUANTITY: MIC
Answer with the number, then the unit.

>  <COMPOUND>
C[n+]1ccn(C[C@@]2(C)[C@H](C(=O)[O-])N3C(=O)C[C@H]3S2(=O)=O)n1

>  <TARGET_ENTITY>
carbapenem-susceptible A. baumannii isolates (n = 54)

>  <RESULT>
1 µg/mL

$$$$

Give MIC for each of the items listed below.
1. CO/N=C(\C(=O)N[C@@H]1C(=O)N2C(C(=O)[O-])=C(C[N+]3(C)CCCC3)CS[C@H]12)c1csc(N)n1 [cefepime]
2. C[C@@H](O)[C@H]1C(=O)N2C(C(=O)O)=C(SCCN=CN)C[C@H]12

Reply:
1: 1 µg/mL; 2: 0.25 µg/mL

Task item: API: value(readout= MIC, system= carbapenem-susceptible A. baumannii isolates (n = 54), query= CC1(C)[C@H](C(=O)O)N2C(=O)C[C@H]2S1(=O)=O )
Reply: 0.5 µg/mL
